Each entry below carries its recorded abundance fitness.
B1: Transcriptional repressor p66-beta, residues 415 to 455; numbered along this chain, Q8WXI9 (parent)
chain: VEPFVCAQCRTDFTPHWKQEKNGKILCEQCMTSNQKKALKA

variants of: B1; experiment: abundance fitness (aPCA) (normalised: wild type 0, dead -1); higher = more abundant; growth selection in yeast, the domain comes from the species named; details: Homo sapiens
API note: the answer field is a bare number with no unit suffix.

Here are 2 variants together with their reported answers.
Problem: Entry N22Q : reported abundance fitness = ?
Result: 0.106

Problem: Can you handle I25Q next?
Result: -0.029

New cases:
Problem: Entry V1A : reported abundance fitness = ?
Result: -0.29

Problem: Can you handle F4E next?
Result: -0.134

Problem: Can you handle Q8H next?
Result: 0.58

Problem: Can you handle H16N next?
Result: -0.319

Problem: Can you handle N34H next?
Result: -0.077

Problem: Can you handle K24L next?
Result: -0.106
